# Assay Comment: Selectivity index, ratio of CC50 for Swiss mouse peritoneal macrophages to IC50 for antileishmanial activity against amastigote form of Leishmania infantum MHOM/MA(BE)/67 infected in Swiss mouse peritoneal macrophages
# Assay type: toxicity
# Measurement Setup: read-out: Ratio CC50/IC50

| Molecule | selectivity ratio |
| --- | --- |
| Nc1ncnc2c1c(C#Cc1ccccc1)nn2[C@@H]1O[C@H](CO)[C@@H](O)[C@H]1O | > 1 |
| Nc1ncnc2c1c(/C=C/c1ccccc1)nn2[C@@H]1O[C@H](CO)[C@@H](O)[C@H]1O | > 1 |
| Cc1ccc(-c2nn([C@@H]3O[C@H](CO)[C@@H](O)[C@H]3O)c3ncnc(N)c23)s1 | > 1 |
| NC(=O)c1nn([C@@H]2O[C@H](CO)[C@@H](O)[C@H]2O)c2ncnc(N)c12 | 1 |
| Nc1ncnc2c1c(-c1ccc(Cl)cc1Cl)nn2[C@@H]1O[C@H](CO)[C@@H](O)[C@H]1O | > 1 |
| Nc1ncnc2c1c(Oc1ccccc1)nn2[C@@H]1O[C@H](CO)[C@@H](O)[C@H]1O | > 2 |
| Nc1ncnc2c1c(Cl)nn2[C@@H]1O[C@H](CO)[C@@H](O)[C@H]1O | > 1 |
| Nc1ncnc2c1c(C(F)F)nn2[C@@H]1O[C@H](CO)[C@@H](O)[C@H]1O | 1 |
| Oc1ncnc2[nH]ncc12 [ALLOPURINOL] | > 18 |

====

# Tgt: CYP450 (Homo sapiens, UniProt P04798+P05177+P05181+P08684+P10632+P10635+P11509+P11712+P13584+P20813+P20815+P20853+P24462+P24903+P33260+P33261+P51589+P78329+P98187+Q02928+Q08477+Q16678+Q16696+Q5TCH4+Q6VVX0+Q7Z449+Q8TAV3+Q96SQ9+Q9HB55)
# Assay Comment: Metabolic stability of the compound in human liver microsomes S9 fraction assessed as CYP450-mediated metabolism by measuring parent compound remaining at 5 uM measured after 60 mins in presence of NADPH by UPLC-MS analysis
# Type: ADME, subcellular
# Measurement Setup: read-out: Stabilty
Assay Endpoint: remaining at 1 h, 5 µM (%)

| Structure As Smiles | Readout Number |
| --- | --- |
| Nc1ncnc2c1c(-c1ccc(Cl)cc1)nn2[C@@H]1O[C@H](CO)[C@@H](O)[C@H]1O | 101 |

====

selectivity ratio by entry:
# Assay Comment: Selectivity index, ratio of CC50 for human MRC-5 SV2 cells to IC50 for antitrypanosomal activity against nifurtimox-sensitive Trypanosoma cruzi Tulahuen CL2 infected in human MRC-5 SV2 cells
# Assay type: toxicity, cell-based
# Measurement Setup: read-out: Ratio CC50/IC50

| Structure As Smiles | selectivity ratio |
| --- | --- |
| Nc1ncnc2c1c(-c1ccc(Cl)c(F)c1)nn2[C@@H]1O[C@H](CO)[C@@H](O)[C@H]1O | > 54 |
| Nc1ncnc2c1c(-c1ccc(F)c(Cl)c1)nn2[C@@H]1O[C@H](CO)[C@@H](O)[C@H]1O | > 14 |
| Nc1ncnc2c1c(-c1ccc(Cl)s1)nn2[C@@H]1O[C@H](CO)[C@@H](O)[C@H]1O | 14 |
| Cc1csc(-c2nn([C@@H]3O[C@H](CO)[C@@H](O)[C@H]3O)c3ncnc(N)c23)c1 | > 2 |
| Cc1cc(Cl)ccc1-c1nn([C@@H]2O[C@H](CO)[C@@H](O)[C@H]2O)c2ncnc(N)c12 | > 17 |
| Nc1ncnc2c1c(-c1ccc(C(F)(F)F)cc1)nn2[C@@H]1O[C@H](CO)[C@@H](O)[C@H]1O | > 10 |
| Nc1ncnc2c1c(-c1ccc(Cl)c(Cl)c1)nn2[C@@H]1O[C@H](CO)[C@@H](O)[C@H]1O | > 23 |
| N#Cc1ccc(-c2nn([C@@H]3O[C@H](CO)[C@@H](O)[C@H]3O)c3ncnc(N)c23)cc1 | > 2 |
| Oc1ncnc2[nH]ncc12 | > 7 |

====

# Assay Comment: Selectivity index, ratio of CC50 for Swiss mouse peritoneal macrophages to IC50 for antileishmanial activity against amastigote form of Leishmania infantum MHOM/MA(BE)/67 infected in Swiss mouse peritoneal macrophages
# Assay type: toxicity
# Measurement Setup: read-out: Ratio CC50/IC50
selectivity ratio by entry:

| Structure As Smiles | Bound Sign | selectivity ratio |
| --- | --- | --- |
| C=C(C)c1nn([C@@H]2O[C@H](CO)[C@@H](O)[C@H]2O)c2ncnc(N)c12 | = | 1 |
| Nc1ncnc2c1c(-c1ccc(Cl)cc1)nn2[C@H]1C[C@H](O)[C@@H](CO)O1 | = | 1 |
| Cc1nn([C@@H]2O[C@H](CO)[C@@H](O)[C@H]2O)c2ncnc(N)c12 | = | 1 |
| NCc1nn([C@@H]2O[C@H](CO)[C@@H](O)[C@H]2O)c2ncnc(N)c12 | = | 4 |
| Nc1ncnc2c1c(N)nn2[C@@H]1O[C@H](CO)[C@@H](O)[C@H]1O | = | 1 |
| CNc1nn([C@@H]2O[C@H](CO)[C@@H](O)[C@H]2O)c2ncnc(N)c12 | > | 1 |
| Nc1ncnc2c1c(Br)nn2[C@@H]1O[C@H](CO)[C@@H](F)[C@H]1O | = | 1 |
| C=Cc1nn([C@@H]2O[C@H](CO)[C@@H](O)[C@H]2O)c2ncnc(N)c12 | = | 3 |
| Nc1ncnc2[nH]ncc12 | > | 355 |
| Nc1ncnc2c1c(-c1ccncc1)nn2[C@@H]1O[C@H](CO)[C@@H](O)[C@H]1O | > | 3 |
| Nc1ncnc2c1c(I)nn2[C@@H]1O[C@H](CO)[C@@H](O)[C@H]1O | > | 2 |
| Nc1ncnc2c1c(-c1ccccn1)nn2[C@@H]1O[C@H](CO)[C@@H](O)[C@H]1O | = | 1 |
| Nc1ncnc2c1c(-c1c[nH]nn1)nn2[C@@H]1O[C@H](CO)[C@@H](O)[C@H]1O | > | 1 |
| Nc1ncnc2c1c(-c1ccc(C(F)(F)F)cc1)nn2[C@@H]1O[C@H](CO)[C@@H](O)[C@H]1O | > | 1 |
| C#Cc1nn([C@@H]2O[C@H](CO)[C@@H](O)[C@H]2O)c2ncnc(N)c12 | = | 1 |
| Nc1ncnc2c1c(Br)nn2[C@@H]1O[C@H](CO)[C@@H](O)[C@H]1O | > | 2 |
| Nc1ncnc2c1c(C(=O)Nc1ccccc1)nn2[C@@H]1O[C@H](CO)[C@@H](O)[C@H]1O | = | 1 |
| N#Cc1nn([C@@H]2O[C@H](CO)[C@@H](O)[C@H]2O)c2ncnc(N)c12 | > | 8 |
| O=c1[nH]cnc2c1cnn2[C@@H]1O[C@H](CO)[C@@H](O)[C@H]1O | = | 10 |
| Nc1ncnc2c1cnn2[C@@H]1O[C@H](CO)[C@@H](O)[C@H]1O | > | 60 |

====

# Test system: UGT
# Assay Comment: Metabolic stability of the compound in mouse liver microsomes S9 fraction assessed as UGT-mediated metabolism by measuring parent compound remaining at 5 uM measured after 15 mins in presence of UDPGA by UPLC-MS analysis
# Format: ADME, subcellular
# Measurement Setup: read-out: Stabilty

| Structure As Smiles | remaining at 0.25 h, 5 µM (%) |
| --- | --- |
| Nc1ncnc2c1c(-c1ccc(Cl)cc1)nn2[C@@H]1O[C@H](CO)[C@@H](O)[C@H]1O | 103 |

====

# Assay Comment: Cytotoxicity against human MRC-5 SV2 cells assessed as reduction in cell growth measured after 3 days by resazurin dye based fluorometric analysis
# Measurement Setup: time 3 day
Assay Endpoint: CC50 at 72 h (µM)

| Structure As Smiles | Unit Abbreviation | Bound Sign | Readout Number |
| --- | --- | --- | --- |
| Cc1nn([C@@H]2O[C@H](CO)[C@@H](O)[C@H]2O)c2ncnc(N)c12 | µM | = | 57.5 |
| CC(C)(C)c1ccc(-c2nn([C@@H]3O[C@H](CO)[C@@H](O)[C@H]3O)c3ncnc(N)c23)cc1 | µM | > | 64 |
| Nc1ncnc2c1c(-c1ccc(Cl)cc1)nn2[C@H]1C[C@H](O)[C@@H](CO)O1 | µM | > | 64 |
| C=C(C)c1nn([C@@H]2O[C@H](CO)[C@@H](O)[C@H]2O)c2ncnc(N)c12 | µM | = | 0.35 |
| Nc1ncnc2c1cnn2[C@@H]1O[C@H](CO)[C@@H](F)[C@H]1O | µM | > | 64 |

====

# Tested on: Trypanosoma cruzi
# Assay Comment: Antitrypanosomal activity against nifurtimox-sensitive Trypanosoma cruzi Tulahuen CL2 infected in human MRC-5 SV2 cells assessed as inhibition of parasite growth measured after 7 days by spectrophotometric analysis
# Format: functional, organism-based
# Measurement Setup: Tulahuen CL2, MRC-5 SV2, 168 h
pIC50: −log10 of the molar value.
pIC50 by entry:
Assay Endpoint: pIC50

| Structure As Smiles | Assay Endpoint | Bound Sign | Readout Number |
| --- | --- | --- | --- |
| COc1cc(-c2nn([C@@H]3O[C@H](CO)[C@@H](O)[C@H]3O)c3ncnc(N)c23)ccc1Cl | pIC50 | = | 5.94 |
| Nc1ncnc2c1c(C(F)(F)F)nn2[C@@H]1O[C@H](CO)[C@@H](O)[C@H]1O | pIC50 | = | 4.57 |
| Cc1ccc(-c2nn([C@@H]3O[C@H](CO)[C@@H](O)[C@H]3O)c3ncnc(N)c23)cc1 | pIC50 | = | 5.75 |
| Nc1ncnc2c1c(C(F)F)nn2[C@@H]1O[C@H](CO)[C@@H](O)[C@H]1O | pIC50 | = | 5.08 |
| CC(C)(C)c1ccc(-c2nn([C@@H]3O[C@H](CO)[C@@H](O)[C@H]3O)c3ncnc(N)c23)cc1 | pIC50 | < | 4.19 |
